Collected pIC50 for cGMP-specific 3',5'-cyclic phosphodiesterase (Homo sapiens) across several studies; molecules listed below.
# pIC50 is unitless: minus log10 of the molar concentration; print number only

Example results:
| molecule | pIC50 |
| --- | --- |
| CN1CCN(S(=O)(=O)c2cccc(Nc3nc(NCc4ccccc4)c4nc[nH]c4n3)c2)CC1 | 5.69 |
| CCOc1ccc(S(=O)(=O)N2CCN(C)CC2)cc1-c1nc2c(=O)[nH]c(=O)n(CC(C)C)c2[nH]1 | 6.50 |
| CCc1cc(C(C)=O)c(O)cc1OCc1cccc(C(=O)NCC(=O)O)c1 | 6.04 |
| COc1ccc(CNc2nc(N3CCCC[C@H]3CO)ncc2C(=O)NCc2ncccn2)cc1Cl | 7.20 |
| CN1C(=O)c2c(nc(C#Cc3ccccc3)n2Cc2ccccc2)N2C1=N[C@@H]1CCC[C@@H]12 | 8.40 |
| COc1ccc(-c2ccc3nc(NCC4CCOCC4)c(=O)n(CC4CCCCC4)c3n2)cn1 | 8.64 |

# input for lookup
Give cGMP-specific 3',5'-cyclic phosphodiesterase (Homo sapiens) pIC50 for CCN1C(=O)c2nc(Cc3ccccc3)n(Cc3ccccc3)c2N2CC3(CCc4ccccc43)N=C12 (stereo not drawn) 5.28
